Target: Human plasma kallikrein (Homo sapiens)
Construct: yields a heavy chain (371 amino acids) and a light chain (248 amino acids); The active site of plasma kallikrein is contained in the light chain
Sequence (P03952 391-638 limits assumed): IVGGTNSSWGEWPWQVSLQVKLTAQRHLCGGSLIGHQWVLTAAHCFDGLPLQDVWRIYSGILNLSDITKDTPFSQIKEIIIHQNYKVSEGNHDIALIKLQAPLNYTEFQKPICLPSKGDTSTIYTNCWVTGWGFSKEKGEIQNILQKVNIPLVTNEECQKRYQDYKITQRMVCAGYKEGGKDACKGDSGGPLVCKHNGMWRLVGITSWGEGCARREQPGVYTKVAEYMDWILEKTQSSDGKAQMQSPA
Sequence (P03952 20-390 partner limits assumed): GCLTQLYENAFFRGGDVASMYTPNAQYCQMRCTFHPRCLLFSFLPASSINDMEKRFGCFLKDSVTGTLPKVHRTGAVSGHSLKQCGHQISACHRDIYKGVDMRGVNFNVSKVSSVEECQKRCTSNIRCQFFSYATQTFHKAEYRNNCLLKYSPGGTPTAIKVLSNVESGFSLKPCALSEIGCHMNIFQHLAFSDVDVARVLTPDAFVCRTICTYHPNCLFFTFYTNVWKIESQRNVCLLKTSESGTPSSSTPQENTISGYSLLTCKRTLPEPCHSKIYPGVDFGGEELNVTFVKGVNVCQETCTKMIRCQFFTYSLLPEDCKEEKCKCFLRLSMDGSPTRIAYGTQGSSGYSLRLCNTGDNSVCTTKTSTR
Test: Plasma Kallikrein Assay
Settings: purified Human plasma kallikrein 0.5 nM, substrate Acetyl-K-P-R-AFC, HEPES pH 7.4; read-out: PKal IC50
test.readout: IC50 (nM)
Only the number, expressed in nM, is required.

// IC50 lookup, key: "Nc1c(C(=O)N2CCC[C@@]3(C2)OC(=O)Nc2ccc(Cl)c(F)c23)cnn1-c1ccncc1Cl"
22.5

Reported IC50, compound CCC(c1ccccc1)n1ncc(C(=O)N2CCC[C@@]3(C2)OC(=O)Nc2ccc(Cl)c(F)c23)c1N (single isomer, unassigned) [Example 116] : ____
0.7

Item "Cn1ncc(C(=O)N2CCC[C@@]3(C2)OC(=O)Nc2ccc(Cl)c(F)c23)c1N" has what recorded IC50?
338

// query IC50 value for entry COCC(C)(n1ncc(C(=O)N2CCC[C@@]3(C2)OC(=O)Nc2ccc(Cl)c(F)c23)c1N)C(F)(F)F (single isomer, unassigned) [Example 129]
6.5

Which IC50 value is on record for "CN(C)c1ccccc1Cn1ncc(C(=O)N2CCC[C@@]3(C2)OC(=O)Nc2ccc(Cl)c(F)c23)c1N" ?
11.4

Suppose we examine the compound "Nc1c(C(=O)N2CCC[C@@]3(C2)OC(=O)Nc2ccc(Cl)c(F)c23)cnn1-c1cc(F)ccc1OC(F)F" ; what IC50 value has been reported?
34.8

Query: IC50; subject: "Nc1c(C(=O)N2CCC[C@@]3(C2)OC(=O)Nc2ccc(Cl)c(F)c23)cnn1Cc1cccc(Cl)c1"
0.5

Reference source for all entries: patent US12679848B2
